Data provenance: ChEMBL document CHEMBL3046070

Field: MIC. Provide a value for each of the compounds that follow.
Tested on: Salmonella typhi
Assay: Antibacterial activity against Salmonella enterica subsp. enterica serovar Typhi MTCC 98 assessed as growth inhibition after overnight incubation by NCCLS broth microdilution method
Type: functional
Write the value in µg/mL as a bare number.

Fill in MIC for CCOC(=O)C1=C(N)N(Nc2ccc(F)cc2)C2=C(C(=O)CC(C)(C)C2)C1c1cc2cc(C)ccc2nc1Cl (stereo not drawn) tested with Salmonella typhi. 200

Fill in MIC for CCOC(=O)C1=C(N)N(Nc2ccc(Cl)cc2)C2=C(C(=O)CC(C)(C)C2)C1c1cc2cc(OC)ccc2nc1Cl (stereo not drawn) tested with Salmonella typhi. 100

Fill in MIC for CCOC(=O)C1=C(N)N(Nc2ccc(F)cc2)C2=C(C(=O)CC(C)(C)C2)C1c1cc2cc(OC)ccc2nc1Cl (stereo not drawn) tested with Salmonella typhi. 200

Fill in MIC for CCOC(=O)C1=C(N)N(Nc2ccc(F)cc2)C2=C(C(=O)CC(C)(C)C2)C1c1cc2cc(Cl)ccc2nc1Cl (stereo not drawn) tested with Salmonella typhi. 250

Fill in MIC for CCOC(=O)C1=C(N)N(Nc2ccccc2)C2=C(C(=O)CC(C)(C)C2)C1c1cc2cc(OC)ccc2nc1Cl (stereo not drawn) tested with Salmonella typhi. 250

Fill in MIC for CCOC(=O)C1=C(N)N(Nc2ccc(OC)cc2)C2=C(C(=O)CC(C)(C)C2)C1c1cc2cc(C)ccc2nc1Cl (stereo not drawn) tested with Salmonella typhi. 100

Fill in MIC for CCOC(=O)C1=C(N)N(Nc2ccccc2)C2=C(C(=O)CC(C)(C)C2)C1c1cc2cc(C)ccc2nc1Cl (stereo not drawn) tested with Salmonella typhi. 250

Fill in MIC for CCOC(=O)C1=C(N)N(Nc2ccc(Br)cc2)C2=C(C(=O)CC(C)(C)C2)C1c1cc2cc(OC)ccc2nc1Cl (stereo not drawn) tested with Salmonella typhi. 200

###

Field: MIC. Provide a value for each of the compounds that follow.
Tested on: Salmonella typhi
Test: Antibacterial activity against Salmonella enterica subsp. enterica serovar Typhi MTCC 98 assessed as growth inhibition after overnight incubation by NCCLS broth microdilution method
Assay type: functional
Please report the result as a number followed by the unit.

Please report the measured MIC for CCOC(=O)C1=C(N)N(Nc2ccc(Cl)cc2)C2=C(C(=O)CC(C)(C)C2)C1c1cc2cc(Cl)ccc2nc1Cl (centres undefined) 250 µg/mL

Please report the measured MIC for CCOC(=O)C1=C(N)N(Nc2ccc(OC)cc2)C2=C(C(=O)CC(C)(C)C2)C1c1cc2cc(Cl)ccc2nc1Cl (centres undefined) 250 µg/mL

Please report the measured MIC for CCOC(=O)C1=C(N)N(Nc2ccc(C)cc2)C2=C(C(=O)CC(C)(C)C2)C1c1cc2cc(C)ccc2nc1Cl (centres undefined) 500 µg/mL

Please report the measured MIC for CCOC(=O)C1=C(N)N(Nc2ccc(Br)cc2)C2=C(C(=O)CC(C)(C)C2)C1c1cc2ccccc2nc1Cl (centres undefined) 50 µg/mL

###

Test system: Escherichia coli
Experiment: Antibacterial activity against Escherichia coli MTCC 443 assessed as growth inhibition after overnight incubation by NCCLS broth microdilution method
Type: functional
Field: MIC. Provide a value for each of the compounds that follow.
Write the value in µg/mL as a bare number.

Please report the measured MIC for CCOC(=O)C1=C(N)N(Nc2ccc(C)cc2)C2=C(C(=O)CC(C)(C)C2)C1c1cc2ccccc2nc1Cl (centres undefined) 250

Please report the measured MIC for CCOC(=O)C1=C(N)N(Nc2ccc(Br)cc2)C2=C(C(=O)CC(C)(C)C2)C1c1cc2cc(Cl)ccc2nc1Cl (centres undefined) 200

Please report the measured MIC for CCOC(=O)C1=C(N)N(Nc2ccc(C)cc2)C2=C(C(=O)CC(C)(C)C2)C1c1cc2cc(Cl)ccc2nc1Cl (centres undefined) 500

Please report the measured MIC for CCOC(=O)C1=C(N)N(Nc2ccccc2)C2=C(C(=O)CC(C)(C)C2)C1c1cc2ccccc2nc1Cl (centres undefined) 50
